Measured target: UniProt:Q14833
Sequence (Q14833 whole entry): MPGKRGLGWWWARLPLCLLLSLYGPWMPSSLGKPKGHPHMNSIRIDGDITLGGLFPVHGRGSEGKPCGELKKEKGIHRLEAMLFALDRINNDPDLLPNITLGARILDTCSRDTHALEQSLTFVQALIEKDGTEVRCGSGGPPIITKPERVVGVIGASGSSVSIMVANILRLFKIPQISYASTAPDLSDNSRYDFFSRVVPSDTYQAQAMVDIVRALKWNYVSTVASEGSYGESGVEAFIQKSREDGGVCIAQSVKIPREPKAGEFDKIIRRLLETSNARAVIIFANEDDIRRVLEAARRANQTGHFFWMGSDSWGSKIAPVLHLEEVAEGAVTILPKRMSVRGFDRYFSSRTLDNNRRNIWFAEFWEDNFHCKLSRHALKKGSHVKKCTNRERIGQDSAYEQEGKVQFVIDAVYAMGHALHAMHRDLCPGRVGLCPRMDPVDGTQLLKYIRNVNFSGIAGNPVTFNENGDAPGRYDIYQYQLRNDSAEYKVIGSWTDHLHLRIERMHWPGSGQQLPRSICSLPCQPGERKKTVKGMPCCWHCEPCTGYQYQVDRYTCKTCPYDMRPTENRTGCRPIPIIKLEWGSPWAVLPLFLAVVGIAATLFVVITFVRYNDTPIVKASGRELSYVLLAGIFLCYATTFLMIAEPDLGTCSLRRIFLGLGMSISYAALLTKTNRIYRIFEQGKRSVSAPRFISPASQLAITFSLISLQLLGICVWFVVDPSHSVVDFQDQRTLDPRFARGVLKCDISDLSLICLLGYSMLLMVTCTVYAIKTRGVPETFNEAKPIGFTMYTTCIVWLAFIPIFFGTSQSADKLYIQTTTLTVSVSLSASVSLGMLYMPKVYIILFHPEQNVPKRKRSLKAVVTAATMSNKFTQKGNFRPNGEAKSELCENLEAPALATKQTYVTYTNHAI
Measurement notes: Allosteric modulator activity at human mGlu4 receptor expressed in CHO cells coexpressing Gqi5 assessed as effect on calcium flux
Assay type: functional, cell-based
Conditions: cho
Property name: EC50

1. Cc1cc(C)cc(NC(=O)[C@H]2CCCC[C@H]2C(=O)O)c1; Not Active
2. CC1(C)[C@H](C(=O)Nc2cc(Cl)cc(Cl)c2)[C@@H]1C(=O)O; Not Active
3. O=C(Nc1cc(Cl)cc(Cl)c1)[C@@H]1[C@H](C(=O)O)[C@H]2C=C[C@@H]1C2; Not Active
4. O=C(Nc1cccc(Br)c1)[C@H]1CCCC[C@H]1C(=O)O; Not Active
5. Cc1ccc(NC(=O)[C@H]2CCCC[C@H]2C(=O)O)cc1C; Not Active
6. CC1=CC[C@H](C(=O)Nc2cc(Cl)cc(Cl)c2)[C@H](C(=O)O)C1; Not Active
7. O=C(Nc1cc(F)cc(F)c1)[C@H]1CCCC[C@H]1C(=O)O; Not Active
8. O=C(Nc1cc(Cl)cc(Cl)c1)[C@H]1CCC[C@H]1C(=O)O; Not Active
9. O=C(Nc1cc(Cl)cc(Cl)c1)[C@H]1CCCC[C@H]1C(=O)NC1CCCC1; Not Active
10. O=C(Nc1cc(C(F)(F)F)cc(C(F)(F)F)c1)[C@H]1CCCC[C@H]1C(=O)O; Not Active
11. O=C(NC1CCC1)[C@H]1CCCC[C@H]1C(=O)O; Not Active
12. O=C(NCc1ccccc1)[C@H]1CCCC[C@H]1C(=O)O; Not Active
13. O=C(NN1CCOCC1)[C@H]1CCCC[C@H]1C(=O)O; Not Active
14. O=C(Nc1cc(Cl)cc(Cl)c1)[C@H]1CCCC[C@H]1c1nsc(=O)[nH]1; Not Active
15. O=C(O)[C@@H]1CCC[C@H](C(=O)Nc2cc(Cl)cc(Cl)c2)C1; Not Active
16. O=C(O)CCC(=O)Nc1cc(Cl)cc(Cl)c1; Not Active
17. O=C(O)C1CCCN(C(=O)Nc2cc(Cl)cc(Cl)c2)C1 (stereo not given); Not Active
18. O=C(Nc1ccc(F)c(F)c1)[C@H]1CCCC[C@H]1C(=O)O; Not Active
19. Cc1nc(NC(=O)[C@H]2CCCC[C@H]2C(=O)O)nn1C; Not Active
20. O=C(Nc1cc(Cl)cc(Cl)c1)[C@H]1CCCC[C@H]1C(=O)N1CCOCC1; Not Active
